I'd be grateful if you could share measured CSP for these entries.
- system tested: UniProt P60520
- test context: residue K48; GABARAPL2:ligand molar ratio 1:2
Answers are plain numbers, in ppm.

# example entries with known answers
chemical string: O=c1cc(-c2ccccc2)c2c(O)cc(O)cc2o1
CSP / ppm: 0.007

chemical string: O=C1Nc2ccc(I)cc2C1=Cc1cc(Br)c(O)c(Br)c1
CSP / ppm: 0.168

chemical string: Cc1ccc(C(=O)N(CCCN)[C@@H](c2nc3cc(Cl)ccc3c(=O)n2Cc2ccccc2)C(C)C)cc1
CSP / ppm: 0.022

Let's switch to this molecule now.
Task item: # get_value(readout='CSP', item= `O=C1Nc2ccc(Br)cc2C1=Cc1cc(O)c(O)c(Br)c1` )
Reply: 0.050

---

I'd be grateful if you could share measured CSP for these entries.
- system tested: GABARAPL2 (Homo sapiens)
- test context: residue Y106; GABARAPL2:ligand molar ratio 1:2
Please answer in the form of a number followed by its unit of measurement.

# example entries with known answers
chemical string: Cc1ccc(C(=O)N(CCCN)[C@@H](c2nc3cc(Cl)ccc3c(=O)n2Cc2ccccc2)C(C)C)cc1
system tested: GABARAPL2 (Homo sapiens)
measurement kind: CSP
recorded measurement: 0.00214 ppm
//
chemical string: O=C1Nc2ccc(I)cc2C1=Cc1cc(Br)c(O)c(Br)c1
system tested: GABARAPL2 (Homo sapiens)
measurement kind: CSP
recorded measurement: 0.097 ppm

Could you report CSP for every entry in the following list?
1. O=C1Nc2ccc(Br)cc2C1=Cc1cc(O)c(O)c(Br)c1
2. O=c1cc(-c2ccccc2)c2c(O)cc(O)cc2o1

Reply:
1: 0.023 ppm; 2: 0.007 ppm

---

- system tested: LC3B (Homo sapiens)
pKd: −log10 of the molar value.
measurement kind: pKd

Task item: # get_value(readout='pKd', item= `O=C1Nc2ccc(I)cc2C1=Cc1cc(Br)c(O)c(Br)c1` )
Reply: ≤ 3.70

---

I'd be grateful if you could share measured CSP for these entries.
- system tested: GABARAPL2 (Homo sapiens)
- test context: residue G111; GABARAPL2:ligand molar ratio 1:2
Please answer in the form of a number followed by its unit of measurement.

# example entries with known answers
chemical string: O=C1Nc2ccc(I)cc2C1=Cc1cc(Br)c(O)c(Br)c1
CSP: 0.010 ppm

chemical string: Cc1ccc(C(=O)N(CCCN)[C@@H](c2nc3cc(Cl)ccc3c(=O)n2Cc2ccccc2)C(C)C)cc1
CSP: 0.00847 ppm

chemical string: O=c1cc(-c2ccccc2)c2c(O)cc(O)cc2o1
CSP: 0.008 ppm

Let's switch to this molecule now.
Task item: # get_value(readout='CSP', item= `O=C1Nc2ccc(Br)cc2C1=Cc1cc(O)c(O)c(Br)c1` )
Reply: 0.00641 ppm

---

- system tested: GABARAPL2 (Homo sapiens, UniProt P60520)
- Sequence (P60520 whole entry): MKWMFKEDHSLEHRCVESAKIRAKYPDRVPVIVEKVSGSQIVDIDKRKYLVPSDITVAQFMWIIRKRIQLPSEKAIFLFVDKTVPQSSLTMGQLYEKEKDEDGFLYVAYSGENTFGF
- test context: residue Y109; GABARAPL2:ligand molar ratio 1:2
measurement kind: CSP (ppm)
Give bare numbers, in ppm.

chemical string: O=C1Nc2ccc(I)cc2C1=Cc1cc(Br)c(O)c(Br)c1
recorded measurement: 0.012

Could you report CSP for every entry in the following list?
1. Cc1ccc(C(=O)N(CCCN)[C@@H](c2nc3cc(Cl)ccc3c(=O)n2Cc2ccccc2)C(C)C)cc1
2. O=C1Nc2ccc(Br)cc2C1=Cc1cc(O)c(O)c(Br)c1
3. O=c1cc(-c2ccccc2)c2c(O)cc(O)cc2o1

Reply:
1: 0.00263; 2: 0.009; 3: 0.007
